tested on: K. pneumoniae MP-546; experiment: Broth dilution MIC determination (CLSI), K. pneumoniae MP-546; format: cell-based; conditions: Klebsiella pneumoniae, MP546; strain MP-546, broth dilution
outcome measure: MIC

| compound | MIC |
| --- | --- |
| CO[C@]1(C)C[C@@H](C)CN(C)[C@H]([C@H]2CCN(C(=O)CN(C)C)C2)COC(=O)C(C)(C)C(=O)[C@H](C)[C@H]1O[C@@H]1O[C@H](C)C[C@H](N(C)C)[C@H]1O | 4 to 32 µg/mL |

Problem: Fill in the blank: the reported MIC of `CO[C@]1(C)C[C@@H](C)CN(C)[C@H](C2CN(C(=O)[C@@H]3CCNC3)C2)COC(=O)C(C)(C)C(=O)[C@H](C)[C@H]1O[C@@H]1O[C@H](C)C[C@H](N(C)C)[C@H]1O` is ____.
Result: > 32 µg/mL

Problem: Field entry: `CO[C@]1(C)C[C@@H](C)CN(C)[C@H](C2CN(C(=O)CC(C)(C)CN(C)CC3CC3)C2)COC(=O)C(C)(C)C(=O)[C@H](C)[C@H]1O[C@@H]1O[C@H](C)C[C@H](N(C)C)[C@H]1O`
Result: < 4 µg/mL

Problem: Field entry: `CO[C@]1(C)C[C@@H](C)CN(C)[C@@H]([C@H]2CC[C@H](N(C)C)CC2)COC(=O)C(C)(C)C(=O)[C@H](C)[C@H]1O[C@@H]1O[C@H](C)C[C@H](N(C)C)[C@H]1O`
Result: 4 to 32 µg/mL

Problem: Field entry: `CO[C@]1(C)C[C@@H](C)CN(C)[C@H]([C@@H]2CCN(C(C)C)C2)COC(=O)C(C)(C)C(=O)[C@H](C)[C@H]1O[C@@H]1O[C@H](C)C[C@H](N(C)C)[C@H]1O`
Result: 4 to 32 µg/mL

Problem: Field entry: `CO[C@]1(C)C[C@@H](C)CN(C)[C@H](C2CCN(C(=O)CN3CCCC3)CC2)COC(=O)C(C)(C)C(=O)[C@H](C)[C@H]1O[C@@H]1O[C@H](C)C[C@H](N(C)C)[C@H]1O`
Result: 4 to 32 µg/mL

Problem: Field entry: `CO[C@]1(C)C[C@@H](C)CN(C)[C@H]([C@@H]2CCCN2)COC(=O)C(C)(C)C(=O)[C@H](C)[C@H]1O[C@@H]1O[C@H](C)C[C@H](N(C)C)[C@H]1O`
Result: > 32 µg/mL

Problem: Field entry: `CO[C@]1(C)C[C@@H](C)CN(C)[C@@H](C2CN(CC(C)C)C2)COC(=O)C(C)(C)C(=O)[C@H](C)[C@H]1O[C@@H]1O[C@H](C)C[C@H](N(C)C)[C@H]1O`
Result: 4 to 32 µg/mL

Problem: Field entry: `CO[C@]1(C)C[C@@H](C)CN(C)[C@H]([C@H]2C[C@@H](N(C)C)C2)COC(=O)C(C)(C)C(=O)[C@H](C)[C@H]1O[C@@H]1O[C@H](C)C[C@H](N(C)C)[C@H]1O`
Result: 4 to 32 µg/mL

Problem: Field entry: COCC(C)N1CCC([C@H]2COC(=O)C(C)(C)C(=O)[C@H](C)[C@@H](O[C@@H]3O[C@H](C)C[C@H](N(C)C)[C@H]3O)[C@](C)(OC)C[C@@H](C)CN2C)CC1 (stereo partly shown)
Result: < 4 µg/mL

Problem: Field entry: `CO[C@]1(C)C[C@@H](C)CN(C)[C@@H]([C@@H]2CCN(CC(C)C)C2)COC(=O)C(C)(C)C(=O)[C@H](C)[C@H]1O[C@@H]1O[C@H](C)C[C@H](N(C)C)[C@H]1O`
Result: < 4 µg/mL

Problem: Field entry: `CO[C@]1(C)C[C@@H](C)CN(C)[C@H](C2CN(Cc3ccn(C)n3)C2)COC(=O)C(C)(C)C(=O)[C@H](C)[C@H]1O[C@@H]1O[C@H](C)C[C@H](N(C)C)[C@H]1O`
Result: 4 to 32 µg/mL

Problem: Field entry: `CO[C@]1(C)C[C@@H](C)CN(C)[C@H](C2CN(CC(=O)NCc3ccccc3)C2)COC(=O)C(C)(C)C(=O)[C@H](C)[C@H]1O[C@@H]1O[C@H](C)C[C@H](N(C)C)[C@H]1O`
Result: 4 to 32 µg/mL

Problem: Field entry: `CCN(C)[C@H]1C[C@@H]([C@@H]2COC(=O)C(C)(C)C(=O)[C@H](C)[C@@H](O[C@@H]3O[C@H](C)C[C@H](N(C)C)[C@H]3O)[C@](C)(OC)C[C@@H](C)CN2C)C1`
Result: 4 to 32 µg/mL

Problem: Field entry: `CO[C@]1(C)C[C@@H](C)CN(C)[C@@H](C2CCCCC2)COC(=O)C(C)(C)C(=O)[C@H](C)[C@H]1O[C@@H]1O[C@H](C)C[C@H](N(C)C)[C@H]1O`
Result: > 32 µg/mL

Problem: Field entry: `CO[C@]1(C)C[C@@H](C)CN(C)[C@H]([C@@H]2CCCN(C)C2)COC(=O)C(C)(C)C(=O)[C@H](C)[C@H]1O[C@@H]1O[C@H](C)C[C@H](N(C)C)[C@H]1O`
Result: > 32 µg/mL

Problem: Field entry: `CO[C@]1(C)C[C@@H](C)CN(C)[C@@H]([C@@H]2CCN(C(=O)CN(C)C)C2)COC(=O)C(C)(C)C(=O)[C@H](C)[C@H]1O[C@@H]1O[C@H](C)C[C@H](N(C)C)[C@H]1O`
Result: 4 to 32 µg/mL

Problem: Field entry: `CO[C@]1(C)C[C@@H](C)CN(C)[C@H](C2CN(C(C)C)C2)COC(=O)C(C)(C)C(=O)[C@H](C)[C@H]1O[C@@H]1O[C@H](C)C[C@H](N(C)C)[C@H]1O`
Result: 4 to 32 µg/mL

Problem: Field entry: `CO[C@]1(C)C[C@@H](C)CN(C)[C@@H](C2CN(C)C2)COC(=O)C(C)(C)C(=O)[C@H](C)[C@H]1O[C@@H]1O[C@H](C)C[C@H](N(C)C)[C@H]1O`
Result: < 4 µg/mL
